target.entity: T1, human CEACAM5 (human, UniProt P06731 35-685)
T1 construct: whole, on cells; Target on MKN-45 (DSMZ ACC409) and LS180 (ATCC CL-187) cells; also called carcinoembryonic antigen-related cell adhesion molecule 5; CD66e
T1 sequence (looked up): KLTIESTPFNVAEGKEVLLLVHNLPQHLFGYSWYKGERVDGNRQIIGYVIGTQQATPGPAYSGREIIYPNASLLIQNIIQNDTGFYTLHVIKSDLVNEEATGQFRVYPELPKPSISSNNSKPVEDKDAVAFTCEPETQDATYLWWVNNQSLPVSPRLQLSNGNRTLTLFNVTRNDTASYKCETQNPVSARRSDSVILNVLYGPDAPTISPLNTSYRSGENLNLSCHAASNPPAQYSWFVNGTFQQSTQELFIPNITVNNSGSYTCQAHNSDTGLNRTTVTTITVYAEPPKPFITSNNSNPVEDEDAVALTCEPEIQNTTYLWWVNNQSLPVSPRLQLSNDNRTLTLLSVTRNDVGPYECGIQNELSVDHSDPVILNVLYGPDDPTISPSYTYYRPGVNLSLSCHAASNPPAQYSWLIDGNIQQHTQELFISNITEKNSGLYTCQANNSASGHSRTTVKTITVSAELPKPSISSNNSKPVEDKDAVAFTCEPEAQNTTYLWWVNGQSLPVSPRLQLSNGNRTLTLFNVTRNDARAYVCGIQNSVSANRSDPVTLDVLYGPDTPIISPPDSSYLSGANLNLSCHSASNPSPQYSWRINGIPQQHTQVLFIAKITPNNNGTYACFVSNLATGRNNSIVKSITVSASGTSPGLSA
test.details: FACS on MKN-45 cells expressing human CEACAM5

binder	EC50 / nM
P1AH2369 (antibody, V domains shown) VH: QVQLVQSGAEVKKPGSSVKVSCKASGFNIKDTYMHWVRQAPGQGLEWMGRIDPANGNSKYVPKFQGRVTITADTSTSTAYMELSSLRSEDTAVYYCAPFGYYVSDYAMAYWGQGTLVTVSS VL: EIVLTQSPATLSLSPGERATLSCRAGESVDIFGNSFLHWYQQKPGQAPRLLIYRASNRATGIPARFSGSGSGTDFTLTISSLEPEDFAVYYCQQTNEDPYTFGQGTKLEIK	5.5
P1AH2351 (antibody, human IgG1, name in Kabat numbering, V domains shown, Kabat positions) VH: QVQLVQSGAEVKKPGSSVKVSCKASGFNIKDTYMHWVRQAPGQGLEWMGRIDPANGNSKYVPKFQGRVTITADTSTSTAYMELSSLRSEDTAVYYCAAFGYYVSDYAMAYWGQGTLVTVSS VL: EIVLTQSPATLSLSPGERATLSCRAGESVDIFGVGFLHWYQQKPGQAPRLLIYRASNRATGIPARFSGSGSGTDFTLTISSLEPEDFAVYYCQQTNEDPYTFGQGTKLEIK	39.1
P1AH2350 (antibody, name in Kabat numbering, V domains shown) VH: QVQLVQSGAEVKKPGSSVKVSCKASGFNIKDTYMHWVRQAPGQGLEWMGRIDPANGNSKYVPKFQGRVTITADTSTSTAYMELSSLRSEDTAVYYCAVFGYYVSDYAMAYWGQGTLVTVSS VL: EIVLTQSPATLSLSPGERATLSCRAGESVDIFGVGFLHWYQQKPGQAPRLLIYRASNRATGIPARFSGSGSGTDFTLTISSLEPEDFAVYYCQQTNEDPYTFGQGTKLEIK	30.1
P1AH2349 (antibody, human IgG1, V domains shown, also called rehumanized improved expression variant) VH: EVQLVESGGGLVQPGGSLRLSCAASGFNIKDTYMHWVRQAPGKGLEWVGRIDPANGNSKYADSVKGRFTISADTSKNTAYLQMNSLRAEDTAVYYCAPFGYYVSDYAMAYWGQGTTVTVSS VL: EIVLTQSPATLSLSPGERATLSCRAGESVDIFGVGFLHWYQQKPGQAPRLLIYRASNRATGIPARFSGSGSGTDFTLTISSLEPEDFAVYYCQQTNEDPYTFGQGTKLEIK	7.2
P1AH2357 (antibody, name in Kabat numbering, V domains shown) VH: QVQLVQSGAEVKKPGSSVKVSCKASGFNIKSTYMHWVRQAPGQGLEWMGRIDPANGNSKYVPKFQGRVTITADTSTSTAYMELSSLRSEDTAVYYCAPFGYYVSDYAMAYWGQGTLVTVSS VL: EIVLTQSPATLSLSPGERATLSCRAGESVDIFGVGFLHWYQQKPGQAPRLLIYRASNRATGIPARFSGSGSGTDFTLTISSLEPEDFAVYYCQQTNEDPYTFGQGTKLEIK	2.3
